Origin of values: patent US10961200B2

- ASSAY_SYSTEM: Human LDHA (Homo sapiens (Human))
- TEST_SUMMARY: human LDHA primary biochemical assay (resazurin/diaphorase coupled, fluorescence)
- CONDITION_SUMMARY: LDHA inhibitory activity, activity level based on IC50 (Table 7)
pIC50: −log10 of the molar value.
In this section, each of the compounds is paired with its reported pIC50.

Check out these entries, answers already filled in.
{"COMPOUND": "NS(=O)(=O)c1ccc(Cc2cn(-c3nc(C(=O)O)cs3)nc2-c2cccc(OCC3CCCO3)c2)cc1 (stereo not drawn) [Compound 463]", "ASSAY_SYSTEM": "Human LDHA (Homo sapiens (Human))", "PROPERTY": "pIC50", "TEST_RESULT": "> 7.00"}
{"COMPOUND": "Cc1ccc(-c2cccc(-c3c(Cc4ccc([S+](N)(=O)[O-])c(F)c4)c(C4CC4)nn3-c3nc(C(=O)O)cs3)c2)cc1 [Compound 346]", "ASSAY_SYSTEM": "Human LDHA (Homo sapiens (Human))", "PROPERTY": "pIC50", "TEST_RESULT": "4.24 to 6.00"}

// recorded pIC50 for NS(=O)(=O)c1ccc(Cc2cn(-c3nc(C(=O)O)cs3)nc2-c2cccc(Oc3ccccc3)c2)cc1 [Compound 464] : > 7.00
